# method_notes: Plasma pharmacokinetics and tissue distribution 2 h after oral cabazitaxel 10 mg/kg with vehicle or 25 mg/kg ritonavir in wild-type, Oatp1a/1b−/−, Oatp1a/1b/2b1−/−, OATP1B1- and OATP1B3-transgenic mice
# Format: in vivo
# experimental_parameters: male, FVB, mouse, liver, oral, 10 mg/kg, OATP1B3-transgenic mice; vehicle; cabazitaxel 10 mg/kg oral; 2 h; read-out: Liver-to-plasma ratio
# Protocol: All animals were fasted 2 to 3 hours prior to the start of the experiment to minimize variation in absorption after oral administration. […] Subsequently, cardiac puncture was performed with a heparinized needle and syringe collecting a final blood sample. […] All samples were stored at −30° C. until analysis. Differences were considered statistically significant when P<0.05. All data are presented as geometric mean±SD.

smiles_data: CO[C@H]1C(=O)[C@]2(C)[C@@H](OC)C[C@H]3OC[C@@]3(OC(C)=O)[C@H]2[C@H](OC(=O)c2ccccc2)[C@]2(O)C[C@H](OC(=O)[C@H](O)[C@@H](NC(=O)OC(C)(C)C)c3ccccc3)C(C)=C1C2(C)C
Kp at 2 h: 3.61

###

# method_notes: Plasma pharmacokinetics and tissue distribution 2 h after oral cabazitaxel 10 mg/kg with vehicle or 25 mg/kg ritonavir in wild-type, Oatp1a/1b−/−, Oatp1a/1b/2b1−/−, OATP1B1- and OATP1B3-transgenic mice
# Type: in vivo
# experimental_parameters: male, FVB, mouse, plasma, po, 25 mg/kg, OATP1B1-transgenic mice; ritonavir 25 mg/kg oral; cabazitaxel 10 mg/kg oral

smiles_data: CC(C)c1nc(CN(C)C(=O)N[C@H](C(=O)N[C@@H](Cc2ccccc2)C[C@H](O)[C@H](Cc2ccccc2)NC(=O)OCc2cncs2)C(C)C)cs1
Tmax / h: 1.17

###

# method_notes: Plasma pharmacokinetics and tissue distribution 2 h after oral cabazitaxel 10 mg/kg with vehicle or 25 mg/kg ritonavir in wild-type, Oatp1a/1b−/−, Oatp1a/1b/2b1−/−, OATP1B1- and OATP1B3-transgenic mice
# Type: in vivo
# experimental_parameters: male, FVB, mouse, brain/plasma, po, 10 mg/kg, Oatp1a/1b/2b1−/− mice; vehicle; cabazitaxel 10 mg/kg oral; 2 h; read-out: Brain-to-plasma ratio
result_type: Kp at 2 h

compound: CO[C@H]1C(=O)[C@]2(C)[C@@H](OC)C[C@H]3OC[C@@]3(OC(C)=O)[C@H]2[C@H](OC(=O)c2ccccc2)[C@]2(O)C[C@H](OC(=O)[C@H](O)[C@@H](NC(=O)OC(C)(C)C)c3ccccc3)C(C)=C1C2(C)C [cabazitaxel]
result_type: Kp at 2 h
value_observed: 0.064

###

# method_notes: Plasma pharmacokinetics and tissue distribution 2 h after oral cabazitaxel 10 mg/kg with vehicle or 25 mg/kg ritonavir in wild-type, Oatp1a/1b−/−, Oatp1a/1b/2b1−/−, OATP1B1- and OATP1B3-transgenic mice
# Type: in vivo
# experimental_parameters: male, FVB, mouse, plasma, po, 10 mg/kg, OATP1B1-transgenic mice; vehicle pretreatment; oral 10 mg/kg cabazitaxel

smiles_data: CC(=O)O[C@@]12CO[C@@H]1C[C@H](O)[C@@]1(C)C(=O)[C@H](O)C3=C(C)[C@@H](OC(=O)[C@H](O)[C@@H](NC(=O)OC(C)(C)C)c4ccccc4)C[C@@](O)([C@@H](OC(=O)c4ccccc4)[C@H]21)C3(C)C
output_unit: min
Tmax: 35
//
smiles_data: CO[C@H]1C(=O)[C@]2(C)[C@@H](OC)C[C@H]3OC[C@@]3(OC(C)=O)[C@H]2[C@H](OC(=O)c2ccccc2)[C@]2(O)C[C@H](OC(=O)[C@H](O)[C@@H](NC(=O)OC(C)(C)C)c3ccccc3)C(C)=C1C2(C)C
output_unit: min
Tmax: 27.5

###

# method_notes: Plasma pharmacokinetics and tissue distribution 2 h after oral cabazitaxel 10 mg/kg with vehicle or 25 mg/kg ritonavir in wild-type, Oatp1a/1b−/−, Oatp1a/1b/2b1−/−, OATP1B1- and OATP1B3-transgenic mice
# Assay type: in vivo
# experimental_parameters: male, FVB, OATP1B1-transgenic (Oatp1a/1b−/− background), mouse, plasma, po, 10 mg/kg, OATP1B1-transgenic mice; ritonavir 25 mg/kg oral; cabazitaxel 10 mg/kg oral; read-out: AUC0-2 h
result_type: AUC(0-t) (µM·h)

compound: CO[C@H]1C(=O)[C@]2(C)[C@@H](OC)C[C@H]3OC[C@@]3(OC(C)=O)[C@H]2[C@H](OC(=O)c2ccccc2)[C@]2(O)C[C@H](OC(=O)[C@H](O)[C@@H](NC(=O)OC(C)(C)C)c3ccccc3)C(C)=C1C2(C)C [cabazitaxel]
value_observed: 7.91

###

# method_notes: Plasma pharmacokinetics and tissue distribution 2 h after oral cabazitaxel 10 mg/kg with vehicle or 25 mg/kg ritonavir in wild-type, Oatp1a/1b−/−, Oatp1a/1b/2b1−/−, OATP1B1- and OATP1B3-transgenic mice
# Format: in vivo
# experimental_parameters: male, FVB, mouse, plasma, po, 10 mg/kg, Oatp1a/1b/2b1−/− mice; vehicle pretreatment; oral 10 mg/kg cabazitaxel
result_type: Cmax (nM)

compound: CO[C@H]1C(=O)[C@]2(C)[C@@H](OC)C[C@H]3OC[C@@]3(OC(C)=O)[C@H]2[C@H](OC(=O)c2ccccc2)[C@]2(O)C[C@H](OC(=O)[C@H](O)[C@@H](NC(=O)OC(C)(C)C)c3ccccc3)C(C)=C1C2(C)C [cabazitaxel]
output_unit: nM
value_observed: 2740
--
compound: CC(=O)O[C@@]12CO[C@@H]1C[C@H](O)[C@@]1(C)C(=O)[C@H](O)C3=C(C)[C@@H](OC(=O)[C@H](O)[C@@H](NC(=O)OC(C)(C)C)c4ccccc4)C[C@@](O)([C@@H](OC(=O)c4ccccc4)[C@H]21)C3(C)C [docetaxel]
output_unit: nM
value_observed: 202

###

# method_notes: Plasma pharmacokinetics and tissue distribution 2 h after oral cabazitaxel 10 mg/kg with vehicle or 25 mg/kg ritonavir in wild-type, Oatp1a/1b−/−, Oatp1a/1b/2b1−/−, OATP1B1- and OATP1B3-transgenic mice
# Type: in vivo
# experimental_parameters: male, FVB, mouse, plasma, po, 25 mg/kg, Oatp1a/1b/2b1−/− mice; ritonavir 25 mg/kg oral; cabazitaxel 10 mg/kg oral

smiles_data: CC(C)c1nc(CN(C)C(=O)N[C@H](C(=O)N[C@@H](Cc2ccccc2)C[C@H](O)[C@H](Cc2ccccc2)NC(=O)OCc2cncs2)C(C)C)cs1
Cmax / µM: 7.74

###

# method_notes: in vivo
# experimental_parameters: male, FVB, Cyp3aXAV, mouse, po, 10 mg/kg, AUC0-24 h
result_type: AUC(0-t) (µM·h)

smiles_data: CO[C@H]1C(=O)[C@]2(C)[C@@H](OC)C[C@H]3OC[C@@]3(OC(C)=O)[C@H]2[C@H](OC(=O)c2ccccc2)[C@]2(O)C[C@H](OC(=O)[C@H](O)[C@@H](NC(=O)OC(C)(C)C)c3ccccc3)C(C)=C1C2(C)C
value_observed: 12.5

smiles_data: CC(C)c1nc(CN(C)C(=O)N[C@H](C(=O)N[C@@H](Cc2ccccc2)C[C@H](O)[C@H](Cc2ccccc2)NC(=O)OCc2cncs2)C(C)C)cs1
value_observed: 0.075

smiles_data: CC(=O)O[C@@]12CO[C@@H]1C[C@H](O)[C@@]1(C)C(=O)[C@H](O)C3=C(C)[C@@H](OC(=O)[C@H](O)[C@@H](NC(=O)OC(C)(C)C)c4ccccc4)C[C@@](O)([C@@H](OC(=O)c4ccccc4)[C@H]21)C3(C)C
value_observed: 0.681

###

# method_notes: in vivo
# experimental_parameters: male, Cyp3aXAV (human CYP3A in Cyp3a−/−, FVB background), mouse, po, 10 mg/kg, AUC0-24 h
Overview of reported AUC(0-t) across a group of molecules:

molecule: CC(=O)O[C@@]12CO[C@@H]1C[C@H](O)[C@@]1(C)C(=O)[C@H](O)C3=C(C)[C@@H](OC(=O)[C@H](O)[C@@H](NC(=O)OC(C)(C)C)c4ccccc4)C[C@@](O)([C@@H](OC(=O)c4ccccc4)[C@H]21)C3(C)C [docetaxel]
AUC(0-t): 0.285 µM·h
--
molecule: CO[C@H]1C(=O)[C@]2(C)[C@@H](OC)C[C@H]3OC[C@@]3(OC(C)=O)[C@H]2[C@H](OC(=O)c2ccccc2)[C@]2(O)C[C@H](OC(=O)[C@H](O)[C@@H](NC(=O)OC(C)(C)C)c3ccccc3)C(C)=C1C2(C)C [cabazitaxel]
AUC(0-t): 1.24 µM·h

###

# method_notes: Plasma pharmacokinetics and tissue distribution 2 h after oral cabazitaxel 10 mg/kg with vehicle or 25 mg/kg ritonavir in wild-type, Oatp1a/1b−/−, Oatp1a/1b/2b1−/−, OATP1B1- and OATP1B3-transgenic mice
# Format: in vivo
# experimental_parameters: male, FVB, OATP1B3-transgenic (Oatp1a/1b−/− background), mouse, plasma, po, 10 mg/kg, OATP1B3-transgenic mice; vehicle; cabazitaxel 10 mg/kg oral; read-out: AUC0-2 h
result_type: AUC(0-t) (µM·h)

smiles_data: CO[C@H]1C(=O)[C@]2(C)[C@@H](OC)C[C@H]3OC[C@@]3(OC(C)=O)[C@H]2[C@H](OC(=O)c2ccccc2)[C@]2(O)C[C@H](OC(=O)[C@H](O)[C@@H](NC(=O)OC(C)(C)C)c3ccccc3)C(C)=C1C2(C)C
value_observed: 3.51
